assay: Solubility of the compound of formula (I) as a function of time in aqueous solvents (HPLC); format: physicochemical; conditions: simulated gastric fluid, thermodynamic from solid; 0.1N HCl; 4 hr; 25° C. water bath, agitated

smilesNotation: Cc1cnc(NCC(F)(F)c2ccccc2)c(=O)n1CC(=O)NCCONC(=N)N
solubility at 4 h: 43 mg/mL

----------
Test: Solubility of the compound of formula (I) as a function of time in aqueous solvents (HPLC)
Type: physicochemical
Conditions: aqueous buffer, thermodynamic from solid; citrate buffer pH 6; 7 days; kept at room temperature with no agitation
Method: The sample vials were pulled out at each time point, the pH was measured and the sample was filtered a 0.45 μm PTFE membrane filter. The filtrate was appropriately diluted with the dilution solvent and the concentration of the compound was measured using HPLC. […]

smilesNotation: Cc1cnc(NCC(F)(F)c2ccccc2)c(=O)n1CC(=O)NCCONC(=N)N
outputUnit: µg/mL
solubility at 7 days: 1300

----------
assay: Solubility of the compound of formula (I) as a function of time in aqueous solvents (HPLC); type: physicochemical; conditions: aqueous buffer, thermodynamic from solid; borate buffer pH 10; 4 hr; 25° C. water bath, agitated

smilesNotation: Cc1cnc(NCC(F)(F)c2ccccc2)c(=O)n1CC(=O)NCCONC(=N)N
solubility at 4 h (µg/mL): 1000

----------
assay: Solubility of the compound of formula (I) as a function of time in aqueous solvents (HPLC); format: physicochemical; details: aqueous buffer, thermodynamic from solid; borate buffer pH 8; 4 hr; 25° C. water bath, agitated

smilesNotation: Cc1cnc(NCC(F)(F)c2ccccc2)c(=O)n1CC(=O)NCCONC(=N)N
solubility at 4 h / µg/mL: 1300

----------
Assay: Solubility of the compound of formula (I) as a function of time in aqueous solvents (HPLC)
Type: physicochemical
Settings: aqueous buffer, thermodynamic from solid; citrate buffer pH 2; 24 hr; 25° C. water bath, agitated
Procedure: The sample vials were pulled out at each time point, the pH was measured and the sample was filtered a 0.45 μm PTFE membrane filter. The filtrate was appropriately diluted with the dilution solvent and the concentration of the compound was measured using HPLC. […]

smilesNotation: Cc1cnc(NCC(F)(F)c2ccccc2)c(=O)n1CC(=O)NCCONC(=N)N
solubility at 24 h [µg/mL]: 6900

----------
assay: Solubility of the compound of formula (I) as a function of time in aqueous solvents (HPLC); format: physicochemical; conditions: aqueous buffer, thermodynamic from solid; citrate buffer pH 4; ½ hr; 25° C. water bath, agitated

smilesNotation: Cc1cnc(NCC(F)(F)c2ccccc2)c(=O)n1CC(=O)NCCONC(=N)N
solubility at 0.5 h (mg/mL): 2.1

----------
test: Solubility of the compound of formula (I) as a function of time in aqueous solvents (HPLC); type: physicochemical; settings: aqueous buffer, thermodynamic from solid; borate buffer pH 8; 48 hr; 25° C. water bath, agitated

smilesNotation: Cc1cnc(NCC(F)(F)c2ccccc2)c(=O)n1CC(=O)NCCONC(=N)N
outputUnit: µg/mL
solubility at 48 h: 1200

----------
Assay: Solubility of the compound of formula (I) as a function of time in aqueous solvents (HPLC)
Assay type: physicochemical
Details: simulated intestinal fluid (SIF), fassgf or other biorelevant, thermodynamic from solid; SIF (pH ˜6.75); 24 hr; 25° C. water bath, agitated
Protocol: The sample vials were pulled out at each time point, the pH was measured and the sample was filtered a 0.45 μm PTFE membrane filter. The filtrate was appropriately diluted with the dilution solvent and the concentration of the compound was measured using HPLC. […]

smilesNotation: Cc1cnc(NCC(F)(F)c2ccccc2)c(=O)n1CC(=O)NCCONC(=N)N
solubility at 24 h: 2700 µg/mL
